Provenance of the data: patent US7951827B2

Tested on: Trypanosoma brucei brucei
measurement_protocol: In vitro antiprotozoal activity against Trypanosoma brucei brucei
Format: cell-based
condition_context: Trypanosoma brucei, read-out: IC50 (μM) Trypanosoma brucei brucei
quantity_name: IC50 (µM)
Answers are plain numbers, in µM.

State, in one line, measured IC50 of Nc1nc(N)nc(Nc2ccc([As]3SCC(CO)S3)cc2)n1 (stereo not shown) [Melarsoprol, reference compound]
0.00637

* * *

Hi there, I'd appreciate the recorded melting point for every entry that follows.

The examples below pair each entry with its known result.
Cl.Cl.N=C(N)c1cccc(-c2cc(-c3ccc(C(=N)N)cc3[N+](=O)[O-])on2)c1 = 225 °C
COc1ccc(C(=N)N)cc1-c1cc(-c2cc(C(=N)N)ccc2OC)on1.Cl.Cl = 240 °C (dec.)
Cl.Cl.N=C(N)c1ccc(-c2cc(-c3cc(C(=N)N)ccc3Cl)no2)cc1 = 348 °C
Cl.Cl.N=C(N)c1ccc(-c2cc(-c3cc(C(=N)N)ccc3Cl)on2)cc1 = 356 to 358 °C (dec.)
COc1cc(C(=N)N)ccc1-c1cc(-c2cccc(C(=N)N)c2)on1.Cl.Cl = 288 °C (dec.)
COc1cc(C(=N)N)ccc1-c1cc(-c2cc(C(=N)N)ccc2OC)on1.Cl.Cl = 330 °C (dec.)

Look up melting point for the entries below, preserving their order.
1. Cl.Cl.N=C(N)c1cccc(-c2cc(-c3cc(C(=N)N)ccc3Cl)on2)c1
2. COc1ccc(C(=N)NC(C)C)cc1-c1cc(-c2cc(C(=N)NC(C)C)ccc2OC)on1.Cl.Cl
3. COc1ccc(C(=N)N)cc1-c1cc(-c2ccc(C(=N)N)cc2)no1.Cl.Cl
4. Cl.Cl.N=C(N)c1ccc(-c2cc(-c3ccc(C(=N)N)cc3Cl)on2)cc1

1. 347 °C (dec.)
2. 185 °C (dec.)
3. 240 to 242 °C
4. > 350 °C (dec.)

Look up melting point for the entries below, preserving their order.
1. Cl.Cl.N=C(N)c1ccc(-c2cc(-c3ccc(C(=N)N)cc3[N+](=O)[O-])on2)cc1
2. CC(C)NC(=N)c1ccc(-c2cc(-c3cccc(C(=N)NC(C)C)c3)on2)cc1.Cl.Cl
3. COc1ccc(C(=N)N)cc1-c1cc(-c2cccc(C(=N)N)c2)on1.Cl.Cl
4. Cl.Cl.N=C(N)c1cccc(-c2cc(-c3cccc(C(=N)N)c3)on2)c1
5. COc1ccc(C(=N)N)cc1-c1cc(-c2cccc(C(=N)N)c2)no1.Cl.Cl
6. Cl.N=C(N)c1ccc(-c2cc(-c3ccccc3)no2)cc1

1: > 350 °C (dec.); 2: 340 to 343 °C (dec.); 3: 210 °C (dec.); 4: 365 to 367 °C; 5: 240 °C (dec.); 6: 262 to 265 °C
